subject of test: Full-length, GST-tagged, human CaMKIIδ (Homo sapiens)
Construct: Full-Length, Glutathione-S-Transferase(GST)-Tagged, Human CaMKIIδ was purchased from Carna Biosciences; purchased Carna Biosciences 02-111
Sequence (Q13557 1-478 isoform Q13557-12): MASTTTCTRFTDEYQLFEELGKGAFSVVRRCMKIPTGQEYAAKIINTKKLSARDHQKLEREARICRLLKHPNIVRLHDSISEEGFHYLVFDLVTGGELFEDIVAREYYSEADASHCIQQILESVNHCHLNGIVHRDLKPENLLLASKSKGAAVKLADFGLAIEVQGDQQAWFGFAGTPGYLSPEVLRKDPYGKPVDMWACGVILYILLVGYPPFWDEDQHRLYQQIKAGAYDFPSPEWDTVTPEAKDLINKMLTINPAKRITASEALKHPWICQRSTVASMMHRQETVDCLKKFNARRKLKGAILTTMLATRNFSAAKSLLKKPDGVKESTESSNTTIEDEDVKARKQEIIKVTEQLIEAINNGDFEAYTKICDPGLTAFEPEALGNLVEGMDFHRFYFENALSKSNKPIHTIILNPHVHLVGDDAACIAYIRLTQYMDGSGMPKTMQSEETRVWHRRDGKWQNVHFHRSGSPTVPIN
procedure details: CaMKIIδ binding assay (TR-FRET with BODIPY-labeled probe ligand)
measurement parameters: CaMKIIδ binding assay; activity class per Table 2
Method: In vitro CaMKIIδ inhibitory activity was evaluated by a binding assay. Full-Length, Glutathione-S-Transferase(GST)-Tagged, Human CaMKIIδ was purchased from Carna Biosciences (product #02-111, Kobe, Japan). Full-length bovine calmodulin was purchased from Wako Pure Chemical Industries (Osaka, Japan). […] Time-Resolved Fluorescence Resonance Energy Transfer (TR-FRET) Assay […] The percentage of inhibition of test compounds was calculated according to equation (1) Inhibition (%)=100×([…]−T)/(μH−μL) (1) […]
observable: IC50

> print(dat)
                                    compound        result
 1  C[C@@H](Cn1cnnn1)Oc1cc(-c2cnc(Nc3cn([C@@H]4CN(C5CCC5)CC[C@H]4O)nc3C(F)(F)F)nc2)ccc1Cl (mixture of isomers)       < 10 nM
 2  CO[C@H]1CC[C@H](N2CC3(CC(n4cc(Nc5ncc(-c6ccc(Cl)c(O[C@@H](C)Cn7cnnn7)c6)cn5)c(C(C)C)n4)C3)C2)CC1       < 10 nM
 3  CCOC(=O)C1(n2cc(Nc3ncc(-c4ccc(Cl)c(O[C@@H](C)Cn5cnnn5)c4)cn3)c(OCC(F)(F)F)n2)CCC1       < 10 nM
 4  C[C@@H](Cn1cnnn1)Oc1cc(-c2cnc(Nc3cn([C@H]4C[C@H](N)C4)nc3OCC(F)(F)F)nc2)ccc1Cl       < 10 nM
 5  C[C@@H](Cn1cnnn1)Oc1cc(-c2cnc(Nc3cn(CC4(O)CCN(C)CC4)nc3OCC(F)(F)F)nc2)ccc1Cl       < 10 nM
 6  C[C@@H](Cn1cnnn1)Oc1cc(-c2cnc(Nc3cn(C4CC5(C4)CN(C4COCOC4)C5)nc3OCC(F)(F)F)nc2)ccc1Cl       < 10 nM
 7  C[C@@H](Cn1cnnn1)Oc1cc(-c2cnc(Nc3cn(CC4(O)CCC(=O)CC4)nc3OCC(F)(F)F)nc2)ccc1Cl       < 10 nM
 8  C[C@@H](Cn1cnnn1)Oc1cc(-c2cnc(Nc3cn([C@@H]4CCNC[C@H]4O)nc3C(F)(F)F)nc2)ccc1Cl (mixture of isomers)       < 10 nM
 9  C[C@H](Cn1cnnn1)Oc1cc(-c2cnc(Nc3cn([C@H]4CC[C@H](N5CCOCC5)CC4)nc3C(F)(F)F)nc2)ccc1Cl  10 to 100 nM
10  C[C@@H](Cn1cnnn1)Oc1cc(-c2cnc(Nc3cn(C4CC5(C4)CN(C(=O)OC(C)(C)C)C5)nc3OCC(F)(F)F)nc2)ccc1C(F)F      ≥ 100 nM
11  COc1cccc(Cn2cc(Nc3ncc(-c4ccc(Cl)c(O[C@@H](C)Cn5cnnn5)c4)cn3)c(OCC(F)(F)F)n2)n1  10 to 100 nM
12  CCC1(N2CC3(CC(n4cc(Nc5ncc(-c6ccc(Cl)c(O[C@@H](C)Cn7cnnn7)c6)cn5)c(OCC(F)(F)F)n4)C3)C2)CCOCC1       < 10 nM
